Give measured CC50 at 72 h for each item. Keep answers brief.
protocol: Cytotoxicity against human A549 cells after 72 hrs by MTT assay
Assay type: cell-based
measurement_conditions: read-out: CD50
State just the number; it will be interpreted in µg/mL.

Consider the compound `CCCCCCCCCCCCOCc1cn([C@H]2C[C@H](N(CC)CC)[C@@H](CO)O2)c(=O)[nH]c1=O` and give its measured CC50 at 72 h.
5

Consider the compound `CCCCCCCCCCc1cn(Cc2cn([C@H]3C[C@H](O)[C@@H](CO)O3)c(=O)[nH]c2=O)nn1` and give its measured CC50 at 72 h.
100

Consider the compound `CCCCCCCCCCCCOCc1cn([C@H]2C[C@H](N)[C@@H](CO)O2)c(=O)[nH]c1=O` and give its measured CC50 at 72 h.
8

Consider the compound `CCCCCCCCCCCOCc1cn([C@H]2C[C@H](O)[C@@H](CO)O2)c(=O)[nH]c1=O` and give its measured CC50 at 72 h.
90

Consider the compound `CCCCCCCCCCCCOCc1cn([C@H]2C[C@H](O)[C@@H](CN=[N+]=[N-])O2)c(=O)[nH]c1=O` and give its measured CC50 at 72 h.
20

###

Give measured MIC99 for each item. Keep answers brief.
Tested on: Mycobacterium tuberculosis
protocol: Bacteriostatic activity against Mycobacterium tuberculosis H37Rv assessed as growth inhibition
Format: functional
Answer format reminder: number followed by unit.

Provide the documented MIC99 with Mycobacterium tuberculosis as the system for `CCCCCCCCCCCCOCc1cn([C@@H]2C[C@H](O)[C@@H](CO)O2)c(=O)[nH]c1=O`
20 µg/mL

Provide the documented MIC99 with Mycobacterium tuberculosis as the system for `CCCCCCCCCCCCOCc1cn([C@H]2C[C@H](O)[C@@H](CN=[N+]=[N-])O2)c(=O)[nH]c1=O`
10 µg/mL

Provide the documented MIC99 with Mycobacterium tuberculosis as the system for `CCCCCCCCCCc1cn(Cc2cn([C@H]3C[C@H](O)[C@@H](CO)O3)c(=O)nc2N)nn1`
40 µg/mL

Provide the documented MIC99 with Mycobacterium tuberculosis as the system for `NNC(=O)c1ccncc1`
0.1 µg/mL

Provide the documented MIC99 with Mycobacterium tuberculosis as the system for CC1COc2c(N3CCN(C)CC3)c(F)cc3c(=O)c(C(=O)O)cn1c23 (centres undefined)
2 µg/mL

Provide the documented MIC99 with Mycobacterium tuberculosis as the system for `CCCCCCCCCCCCc1cn(Cc2cn([C@H]3C[C@H](O)[C@@H](CO)O3)c(=O)nc2N)nn1`
10 µg/mL

Provide the documented MIC99 with Mycobacterium tuberculosis as the system for `CCCCCCCCCCCCOCc1cn([C@H]2C[C@H](O)[C@@H](CO)O2)c(=O)[nH]c1=O`
20 µg/mL

Provide the documented MIC99 with Mycobacterium tuberculosis as the system for `CCCCCCCCCCCCOCc1cn([C@H]2C[C@H](O)[C@@H](CI)O2)c(=O)[nH]c1=O`
10 µg/mL

Provide the documented MIC99 with Mycobacterium tuberculosis as the system for `CCCCCCCCCCCCOCc1cn([C@H]2C[C@H](N=[N+]=[N-])[C@@H](CO)O2)c(=O)[nH]c1=O`
200 µg/mL

###

Test system: Mycobacterium tuberculosis
protocol: Bacteriostatic activity against Mycobacterium tuberculosis H37Rv assessed as growth inhibition
Format: functional
readout_kind: MIC99 (µg/mL)
State just the number; it will be interpreted in µg/mL.

Consider the compound `CCCCCCCCCCc1cn(Cc2cn([C@H]3C[C@H](O)[C@@H](CO)O3)c(=O)[nH]c2=O)nn1` and give its measured MIC99.
10

Consider the compound `CCCCCCCCCCCCCCOCc1cn([C@H]2C[C@H](O)[C@@H](CO)O2)c(=O)[nH]c1=O` and give its measured MIC99.
200

Consider the compound `CCCCCCCCCCOCc1cn([C@H]2C[C@H](O)[C@@H](CO)O2)c(=O)[nH]c1=O` and give its measured MIC99.
40

Consider the compound `CCCCCCCCCCCCOCc1cn([C@H]2C[C@H](O)[C@@H](CO)O2)c(=O)nc1N` and give its measured MIC99.
200

Consider the compound `CO[C@H]1/C=C/O[C@@]2(C)Oc3c(C)c(O)c4c(O)c(c(/C=N/N5CCN(C)CC5)c(O)c4c3C2=O)NC(=O)/C(C)=C\C=C\[C@H](C)[C@H](O)[C@@H](C)[C@@H](O)[C@@H](C)[C@H](OC(C)=O)[C@@H]1C` and give its measured MIC99.
1

Consider the compound `CCCCCCCCc1cn(Cc2cn([C@H]3C[C@H](O)[C@@H](CO)O3)c(=O)[nH]c2=O)nn1` and give its measured MIC99.
20

Consider the compound `CCCCCCCCCCCCc1cn(Cc2cn([C@H]3C[C@H](O)[C@@H](CO)O3)c(=O)[nH]c2=O)nn1` and give its measured MIC99.
10

Consider the compound `CCCCCCCCCCCCOCc1cn([C@H]2C[C@H](N(CC)CC)[C@@H](CO)O2)c(=O)[nH]c1=O` and give its measured MIC99.
20

###

protocol: Cytotoxicity against African green monkey Vero cells after 72 hrs by MTT assay
Type: cell-based
measurement_conditions: chlorocebus sabaeus, read-out: CD50
Give measured CC50 at 72 h for each item. Keep answers brief.

Consider the molecule `CO[C@H]1/C=C/O[C@@]2(C)Oc3c(C)c(O)c4c(O)c(c(/C=N/N5CCN(C)CC5)c(O)c4c3C2=O)NC(=O)/C(C)=C\C=C\[C@H](C)[C@H](O)[C@@H](C)[C@@H](O)[C@@H](C)[C@H](OC(C)=O)[C@@H]1C` and give its measured CC50 at 72 h.
> 500 µg/mL

Consider the molecule `CCCCCCCCc1cn(Cc2cn([C@H]3C[C@H](O)[C@@H](CO)O3)c(=O)nc2N)nn1` and give its measured CC50 at 72 h.
> 100 µg/mL

Consider the molecule `CCCCCCCCCCCCOCc1cn([C@H]2C[C@H](O)[C@@H](CO)O2)c(=O)[nH]c1=O` and give its measured CC50 at 72 h.
> 100 µg/mL

Consider the molecule `CCCCCCCCCCc1cn(Cc2cn([C@H]3C[C@H](O)[C@@H](CO)O3)c(=O)[nH]c2=O)nn1` and give its measured CC50 at 72 h.
> 100 µg/mL

Consider the molecule `CCCCCCCCCCCCOCc1cn([C@H]2C[C@H](O)[C@@H](CN)O2)c(=O)[nH]c1=O` and give its measured CC50 at 72 h.
14 µg/mL

Consider the molecule `CCCCCCCCCCCCc1cn(Cc2cn([C@H]3C[C@H](O)[C@@H](CO)O3)c(=O)nc2N)nn1` and give its measured CC50 at 72 h.
> 100 µg/mL

Consider the molecule `CCCCCCCCCCCCOCc1cn([C@H]2C[C@H](O)[C@@H](CN=[N+]=[N-])O2)c(=O)[nH]c1=O` and give its measured CC50 at 72 h.
> 100 µg/mL

Consider the molecule `CCCCCCCCCCCCCCOCc1cn([C@H]2C[C@H](O)[C@@H](CO)O2)c(=O)[nH]c1=O` and give its measured CC50 at 72 h.
> 100 µg/mL

Consider the molecule `CCCCCCCCCCCCc1cn(Cc2cn([C@H]3C[C@H](O)[C@@H](CO)O3)c(=O)[nH]c2=O)nn1` and give its measured CC50 at 72 h.
> 100 µg/mL

Consider the molecule `CCCCCCCCCCCCOCc1cn([C@H]2C[C@H](O)[C@@H](CI)O2)c(=O)[nH]c1=O` and give its measured CC50 at 72 h.
70 µg/mL

Consider the molecule `CCCCCCCCCCOCc1cn([C@H]2C[C@H](O)[C@@H](CO)O2)c(=O)[nH]c1=O` and give its measured CC50 at 72 h.
> 100 µg/mL

Consider the molecule `CCCCCCCCCCCCOCc1cn([C@H]2C[C@H](N=[N+]=[N-])[C@@H](CO)O2)c(=O)[nH]c1=O` and give its measured CC50 at 72 h.
15 µg/mL

Consider the molecule `CCCCCCCCCCCCOCc1cn([C@H]2C[C@H](N)[C@@H](CO)O2)c(=O)[nH]c1=O` and give its measured CC50 at 72 h.
50 µg/mL

Consider the molecule `CCCCCCCCCCc1cn(Cc2cn([C@H]3C[C@H](O)[C@@H](CO)O3)c(=O)nc2N)nn1` and give its measured CC50 at 72 h.
> 100 µg/mL

Consider the molecule `CCCCCCCCCCCCOCc1cn([C@H]2C[C@H](O)[C@@H](CO)O2)c(=O)nc1N` and give its measured CC50 at 72 h.
> 100 µg/mL

###

Give measured CC50 at 72 h for each item. Keep answers brief.
protocol: Cytotoxicity against human A549 cells after 72 hrs by MTT assay
Assay type: cell-based
measurement_conditions: read-out: CD50

Consider the molecule `CCCCCCCCCCCCc1cn(Cc2cn([C@H]3C[C@H](O)[C@@H](CO)O3)c(=O)[nH]c2=O)nn1` and give its measured CC50 at 72 h.
> 100 µg/mL

Consider the molecule `CCCCCCCCc1cn(Cc2cn([C@H]3C[C@H](O)[C@@H](CO)O3)c(=O)[nH]c2=O)nn1` and give its measured CC50 at 72 h.
> 100 µg/mL

Consider the molecule `CCCCCCCCCCCCOCc1cn([C@H]2C[C@H](O)[C@@H](CI)O2)c(=O)[nH]c1=O` and give its measured CC50 at 72 h.
> 100 µg/mL
